- assay notes: Components of the Cytosolic LPS Sensing Pathway: Gene Identification via Genome-wide siRNA Screen;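 note: robust z of the log signal after scaling to non-targeting control siRNA wells of the plate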
- applied conditions: RAW264.7 macrophages, IL-1a HTRF, actives lie on both sides, screened at 100 nM (by protocol), cells primed 5 h with Pam3CSK4 first
- Procedure: Non-canonical inflammasome activation by cytosolic LPS is a critical component of the host response to Gram-negative bacterial infection, however we lack a comprehensive understanding of the cellular processes that control this pathway. […] Lipofectamine RNAiMAX Transfection Reagent ([…]; Invitrogen) was added in […] serum-free, antibiotic-free media to plate wells using a Thermo Scientific Matrix WellMate and Microplate Stacker. […] The plates were read on an EnVision plate reader (PerkinElmer). […]
Screen size: about 53,000 sequences; about 3,700 (7%) were called active.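 Rule for the calls: active = gene knockdowns whose robust z-score for IL-1 alpha signal is at least 2 or at most -2, so actives lie on both sides; inactive = the rest.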 This is one part of a sample in which actives are shown more often than they occur.
Possible outcomes: T for active, F for inactive

In [3]: df
Out[3]:
                       ordered_residues  group_label
0    CCCUUGAUUACACCACAGUTT against Cfc1            T
1  GGAUCCUCUCAUUAAGAAATT against Gabra1            F
2  GGCUUUGAGAGGAACACCATT against Sh2d4b            T
3     GCUUCGACACUUUAUUUCUTT against Cnp            F
4  GGUGAUUUAUUCAGUUCAATT against Lmbrd2            F
5  GGAAGUCAAGAUCUCACCUTT against Lrrc25            F

* * *

Listed next: entries and their corresponding z-score.
- assay notes: Components of the Cytosolic LPS Sensing Pathway: Gene Identification via Genome-wide siRNA Screen;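 note: robust z of the log signal after scaling to non-targeting control siRNA wells of the plate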
- applied conditions: RAW264.7 macrophages, IL-1a HTRF, actives lie on both sides, screened at 100 nM (by protocol), cells primed 5 h with Pam3CSK4 first
About 3,700 (7%) of roughly 53,000 sequences were called active. The sample as a whole holds a higher share of actives than the screen did.
measured quantity: z-score

                        ordered_residues  measured_quantity  test_value
0     GGGUGUGGCUGACUUUGAUTT against Otof            z-score      -0.429
1   GGAUUCACACAGAGGUAAATT against Zfp169            z-score      -0.215
2   GGAAGAAUCGUUUAUGACATT against Ppp4r2            z-score        0.73
3  GGUCAUCAGAAUGUGAAAATT against Zfp354a            z-score       0.232
4    CGUGAAGGAAACUUUUCAGTT against Prmt9            z-score       -1.45
5     GGUGUUUGUGACUCUGGGUTT against Mc4r            z-score        2.77

* * *

- assay notes: Components of the Cytosolic LPS Sensing Pathway: Gene Identification via Genome-wide siRNA Screen;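 note: robust z of the log signal after scaling to non-targeting control siRNA wells of the plate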
- applied conditions: RAW264.7 macrophages, IL-1a HTRF, actives lie on both sides, screened at 100 nM (by protocol), cells primed 5 h with Pam3CSK4 first
Hit rate of the full screen: of about 53,000 sequences, about 3,700 (7%) were called active. Shown is part of a subset that was picked to be rich in actives.
// bucketize z-score: low group: < -0.3; middle group: ≥ -0.3 and < 0.9; high group: ≥ 0.9

>>> df
                            ordered_residues   group_label
 0       GGAGAGACGUAAGAGGCGATT against Zrsr2  middle group
 1       CCUGCUCAAACUUUUGUGGTT against Ephx4    high group
 2       CCGUGUGGUCUGAUAAAAGTT against Fbxl8     low group
 3         GGAUCCAAGGCAAAGAUGUTT against Fto    high group
 4         GCUUUGAUGGAUUCUAAUCTT against Htt    high group
 5      CCGAAGUGCCAUGCCAUUUTT against Pdlim1  middle group
 6     GCGUGGAAGGUCUGAACACTT against Arfgap3    high group
 7       GGUGAUGUUCUAACCCUGCTT against Trex1  middle group
 8    GGUUGAGUGUUUGAAGUCATT against Slc38a11     low group
 9         GGAAGCAAGGAAAAUCAUGTT against Lpo  middle group
10       CCCUUAAGUCUUUUUCCUATT against Celf2     low group
11        GGAAACACCAGAGAAGUCCTT against Etf1     low group
12       GGUUAAAAGAGGUGAUUAGTT against Mtfp1    high group
13       GGCCAGAUAUUAUAAGAAATT against Gtdc1  middle group
14        GGAAAUCCUGAAGUUUCCUTT against Grk5    high group
15    GGUGGAGUUAGAAAACUACTT against BC048679     low group
16        GGUCAUACAUGUGAAGACATT against Tsr2    high group
17         CGGUCAUGUCUACAUGUGCTT against Cfp  middle group
18     CCCAAAUUGAUCCUAGCCUTT against Prkar1b  middle group
19   GGGUAAAAGUAGCUGCCCUTT against Trp53inp2     low group
20      GCACAAUAAAGCUUGUUGCTT against Trmt2a     low group
21      GGUUGGAGAUCUCAUCUAUTT against Exosc3  middle group
22        GCUCAUCUCGAUUUGACUGTT against Cln3     low group
23       GGACACUUUCCAAUGGUGATT against Npsr1    high group
24        GGCAUCUGAGUGAUAUAAATT against Dcps  middle group
25      GGGAGAUAUCUUCUCAGUATT against Psmb11    high group
26        GCCAUACCCUGAAUUACCATT against Ndnf     low group
27      GGAUAUCAUAUUUUCUCAGTT against Fam71d  middle group
28     GGCAGAAAUUUGGAUACCATT against Plekha4    high group
29    GGCAUGAAUACAUCACAGCTT against Vmn1r220     low group
30      CCACCCUGAUUUAAGAAGGTT against Ndufs3    high group
31  GCUUAUUUGUGGUACACGGTT against D030056L22Rik  middle group
32      GGAACAAGAAACCACAAUGTT against Agpat1  middle group
33       GGGUGGAGAACCAAGUUUUTT against Tmed6    high group
34        GGUCCACAAUGGCAUCAUATT against Elf4    high group
35        GGCACUUUUGAUUUCAGAUTT against Nrd1    high group
36       GGACAAGUGCCUCUCACCATT against Glis2     low group
37      GCUCAUUGGGAUCAUUGGUTT against Fancd2    high group
38      GGCACAUGAUCCUUAAUUUTT against Pfkfb3  middle group
39      GGAGUUGAUUGAGGUAAAGTT against Mettl3     low group
40     GCUUCUGCUUGUUCGCUAGTT against Usp17ld    high group
41       CCAACCAAAGAUGAAUUGUTT against Usp19     low group
42    GGUUCAAGGCAACACUGUGTT against Ankrd13d     low group
43      GCAAGAAUCAUCCGGUUACTT against Ttc39b    high group
44      GCGUGGACGAAUGGAAACATT against Mapk13     low group
45       GCUAAUCAACAAUGUCGCCTT against Atp5b  middle group
46       GGCCUACGAACAGGUCAUGTT against Foxa2  middle group
47     CCCUUUCGGGCAAUGGACUTT against Olfr986  middle group
48     CCAGAUGUUACGAAUGAAATT against Tmem209     low group
